Tested on: 639-V (Bladder Carcinoma)
assay.overview: combination Emax (second highest fraction inhibited in the dose matrix, 72 h); higher = more inhibition; extreme values may be limits of the assay
combination Emax values by entry

[
  {
    "compound": "CCN(CCO)CCCOc1ccc2c(Nc3cc(CC(=O)Nc4cccc(F)c4)[nH]n3)ncnc2c1 [AZD2811] + C[C@@H]1COCCN1C2=NC(=NC(=C2)C3(CC3)[S@](=N)(=O)C)C4=C5C=CNC5=NC=C4 [AZD6738] (first compound max 1 µM, 7x7, partner max 10 µM)",
    "combination Emax": 0.339
  },
  {
    "compound": "CC(=O)c1c(C)c2cnc(Nc3ccc(N4CCNCC4)cn3)nc2n(C2CCCC2)c1=O [Palbociclib] + CC1(C)CCC(CN2CCN(c3ccc(C(=O)NS(=O)(=O)c4ccc(NCC5CCOCC5)c([N+](=O)[O-])c4)c(Oc4cnc5[nH]ccc5c4)c3)CC2)=C(c2ccc(Cl)cc2)C1 [Venetoclax] (first compound max 10 µM, 7x7, partner max 1 µM)",
    "combination Emax": 0.147
  },
  {
    "compound": "CN(CCO)CC[C@H](CSc1ccccc1)Nc1ccc(S(=O)(=O)NC(=O)c2ccc(N3CCC([C@@H](O)c4ccccc4-c4ccc(Cl)cc4)CC3)cc2)cc1S(=O)(=O)C(F)(F)F [AZD4320] + C[C@@H]1COCCN1C2=NC(=NC(=C2)C3(CC3)[S@](=N)(=O)C)C4=C5C=CNC5=NC=C4 [AZD6738] (first compound max 1 µM, 7x7, partner max 10 µM)",
    "combination Emax": 0.665
  },
  {
    "compound": "COc1nnc2ccc(N3CCC(c4ccc(OCCN5CCN(C)C(=O)[C@H]5C)cc4)CC3)nn12 [AZD5153] + CN(CC[C@H](CSC1=CC=CC=C1)NC2=C(C=C(C=C2)S(=O)(=O)NC(=O)C3=CC=C(C=C3)N4CCC(CC4)[C@H](C5=CC=CC=C5C6=CC=C(C=C6)Cl)O)S(=O)(=O)C(F)(F)F)CCO [AZD4320] (first compound max 1 µM, 7x7, partner max 1 µM)",
    "combination Emax": 0.606
  },
  {
    "compound": "COc1cccc(OCCCN)c1-c1cc(Nc2cnc(C#N)cn2)n[nH]1 [Prexasertib] + O=C(c1cc(Cc2n[nH]c(=O)c3ccccc23)ccc1F)N1CCN(C(=O)C2CC2)CC1 [Olaparib] (first compound max 1 µM, 7x7, partner max 10 µM)",
    "combination Emax": 0.868
  },
  {
    "compound": "NC1(C(=O)N[C@@H](CCO)c2ccc(Cl)cc2)CCN(c2ncnc3[nH]ccc23)CC1 [Capivasertib] + Cn1cnc2c(F)c(Nc3ccc(Br)cc3Cl)c(C(=O)NOCCO)cc21 [Selumetinib] (first compound max 10 µM, 7x7, partner max 10 µM)",
    "combination Emax": 0.366
  }
]

Hey, just so you know, these numbers are from the supplement of paper PMC11061612.
